List of melting point values.

Observe how each entry below is paired with its result.
CCOC(=O)CN(C)C(=O)CCN(C(=O)c1ccc(Cl)cc1)c1ccc(OC)cc1 | 104 to 106 °C
O=C1NC(=O)C(Cc2ccc(SCCc3ccccc3)cc2)S1 (configuration not stated) | 58 to 65 °C
Oc1ccc2c(c1)CCCC(c1ccccc1)=C2c1ccc(OCCCCCCCl)cc1 | 193 °C

Exercise: Identify measured melting point corresponding to NC(=O)c1nn(-c2ccc3c(c2)OCO3)c2c1CCc1ccc(NC(=O)c3cc(Cl)ncc3Cl)cc1-2
Solution: 292 to 293 °C

Exercise: Identify measured melting point corresponding to OCCC#Cc1cnc2ccccc2c1
Solution: 95.7 to 96.7 °C

Exercise: Identify measured melting point corresponding to COc1ccc(C2=NCc3nnc(CN(C)C)n3-c3ccc(Cl)cc32)cc1
Solution: 224 to 225 °C

Exercise: Identify measured melting point corresponding to O=C(O)C(=O)c1ccc(OCCCCCCOc2ccccc2)cc1
Solution: 121 to 122 °C

Exercise: Identify measured melting point corresponding to O=C(O)c1cccc(-c2ccc3[nH]cc(-c4ccc(Cl)cc4Cl)c3c2)c1
Solution: 303 to 304 °C

Exercise: Identify measured melting point corresponding to CCOC(=O)CCc1oc(-n2ccnc2)nc1-c1ccc(Cl)cc1
Solution: 67 to 68 °C
